Source: PubChem BioAssay AID1626

# METHOD_NOTES: M. tuberculosis H37Rv growth inhibitors, H37Rv strain (AID 1626);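 also: bacteria incubated seven days before Alamar blue readout; 0% = bacteria only wells and 100% = bacteria with antibiotic wells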
# PARTICULARS: active compounds read high, concentration not given here
The whole screen tested about 220,000 compounds, of which about 2,000 (0.91%) were called active. Another 2% or so got no clear call; they are omitted. A selection follows. Results with a measured potency or affinity are listed apart.
ASSAY_METRIC: inhibition (%)

• O=C(CSCc1ccc(C(=O)O)cc1)Nc1ccc2ccccc2c1 = 35.7
• COc1ccccc1NC(=O)N1CCN(CCc2ccccc2)CC1 = -2.85
• CC(C)(C)CC(C)(C)NC(=O)CSCC(=O)Nc1ccc2ccccc2c1 = -8.35
• Cn1c(SCC(=O)O)nc2ccccc2c1=O = 3.07
• CCCCSc1nc2ccc(Nc3nc(N4CCOCC4)nc(N4CCOCC4)n3)cc2s1 = 7.41
• CCC(=O)N1CCN(c2ccc(OC)cc2[N+](=O)[O-])CC1 = -1.32
• Cc1ccc(NC(=O)COC(=O)c2ccc([N+](=O)[O-])s2)c(C)c1 = 9.26
• CCn1cc(C(=O)OCC(=O)c2ccc(Cl)cc2)c(=O)c2ccc(C)nc21 = -8.38
• COc1ccc(/C=N/NC(=O)CC2N=C(Cc3ccccc3)NNC2=O)cc1OC (centres undefined) = -1.24
• CCOC(=O)CN(C#N)c1nc(C)cc(C)n1 = -5.87
• CNC(=O)CCC(=O)Nc1ccc(C)cc1 = -1.09
• Cc1ccc(NC(=O)COC(=O)c2ccc([N+](=O)[O-])o2)cc1S(=O)(=O)N1CCCCC1 = 8.45
• CC(C)(C)c1ccc(C(=O)Nc2ccc(F)cc2)s1 = 12.9
• CCN(CC)CCCNC(=O)Cn1nc([N+](=O)[O-])c(Cl)c1C = -1.51
• O=C(OC(c1ccccc1)c1nccc2ccccc12)c1cccc([N+](=O)[O-])c1 (centres undefined) = 2.31
• COc1ccccc1NS(=O)(=O)c1cc(C)ccc1C = -7.48
• CC(C)=Cc1c(O)nc2ccccn2c1=O = -3.05
• CC(C)C(OC(=O)c1ccccc1)c1nccc2ccccc12 (centres undefined) = 1.56
• COC(=O)C(Cc1ccccc1)NC(=S)NC(=O)c1ccccc1 (centres undefined) = 3.22
• Cc1ccc(NC(=O)c2cccs2)cc1 = -1.3
• O=C(NCc1cccc(Br)c1)C1CC(c2ccc(C(F)(F)F)cc2)=NO1 (centres undefined) = 18.7
• CCc1cc2cc(C(=O)Nc3ccccc3F)sc2s1 = 0.32
• O=C(NC1CCSC1=O)c1ccc(Oc2ccc(F)cc2)nc1 (centres undefined) = 0.17
• Cc1ccc(-c2nn(-c3cccc(F)c3)cc2CNCCc2ccncc2)o1 = 8.28
